assayedTarget: UniProt:Q9NZC2
measurementNotes: Phospho-Syk AlphaScreen/AlphaLISA assay in TREM2 and DAP12 overexpressing HEK293 cells (Example A1)
Format: cell-based
Parameters: expressed in transfected cells
condition: HEK293 cells, read-out: hTREM2 EC50
pEC50: −log10 of the molar value.
metricName: pEC50

Recorded pEC50, per entry:
>>> df
                                   compound        result
0  COCCn1cc([C@H]2CN(c3cc4nc(C)n(C)c(=O)c4c(-c4ccc(Cl)cc4F)n3)CCO2)cn1 [Example 127]  6.30 to 7.30
1  Cc1nc2cc(N3CCO[C@@H](c4cnn(C5CN(C)C5)c4)C3)nc(-c3ccc(Cl)cc3F)c2c(=O)n1C [Example 138]  6.30 to 7.30
2  Cc1nc2cc(N3CCC[C@H](C4CN(C)C4)C3)nc(-c3ccc(Cl)cc3F)c2c(=O)n1C [Example 252]  4.00 to 5.52
3  Cc1c([C@H]2CN(c3cc4nc(C)n(C)c(=O)c4c(-c4ccc(Cl)cc4F)n3)CCO2)cnn1C [Example 262]  5.52 to 6.30
4  Cc1nc2cc(N3CCO[C@@H](c4cccc(OC(F)(F)F)c4)C3)nc(-c3ccc(Cl)cc3F)c2c(=O)n1C (single isomer, unassigned) [Example 98]  4.00 to 5.52

## Input Fill in: pEC50 of Cc1nc2cc([C@@H]3CCO[C@H](c4cccnc4)C3)nc(-c3ccc(Cl)cc3F)c2c(=O)n1C (single isomer, unassigned) [Example 178] is ___
## Output 5.52 to 6.30

## Input Fill in: pEC50 of CCCn1c(C)nc2cc(N3CCOC(c4cnn(C)c4)C3)nc(-c3ncc(Cl)cc3F)c2c1=O (stereo not shown) [Example 21] is ___
## Output 6.30 to 7.30

---

assayedTarget: hTREM2 (Homo sapiens)
measurementNotes: Phospho-Syk AlphaScreen/AlphaLISA assay in TREM2 and DAP12 overexpressing HEK293 cells (Example A1)
Assay type: cell-based
Parameters: expressed in transfected cells
condition: HEK293 cells
metricName: Emax

Recorded Emax, per entry:
                                   compound          assayedtarget  metricname                   result
0  COc1cc([C@@H]2CN(c3cc4nc(C)n(C)c(=O)c4c(-c4ccc(Cl)cc4F)n3)CCO2)ccn1 (single isomer, unassigned) [Example 83]  hTREM2 (Homo sapiens)        Emax          ++++ (Emax>300)
1  Cc1nc2cc(N3CCO[C@@H](c4cnn(C)c4)C3)nc(-c3cc(F)ccc3F)c2c(=O)n1C [Example 228]  hTREM2 (Homo sapiens)        Emax  +++ (Emax>200 and ≤300)
2  COCCn1cc([C@H]2CN(c3cc4nc(C)n(C)c(=O)c4c(-c4ccc(Cl)cc4F)n3)CCO2)cn1 [Example 127]  hTREM2 (Homo sapiens)        Emax          ++++ (Emax>300)
3  Cn1cc([C@H]2CN(c3cc4ncn(C)c(=O)c4c(-c4ccc(Cl)cc4F)n3)CCO2)cn1 [Example 158]  hTREM2 (Homo sapiens)        Emax  +++ (Emax>200 and ≤300)

## Input Fill in: Emax of Cc1nc2cc(N3CCOC(c4ccnc(C(F)(F)F)c4)C3)nc(-c3ccc(Cl)cc3F)c2c(=O)n1C (stereo not shown) [Example 94] is ___
## Output +++ (Emax>200 and ≤300)

## Input Fill in: Emax of Cc1nc2cc(N3CCO[C@@H]([C@@H]4CCO4)C3)nc(-c3ccc(Cl)cc3F)c2c(=O)n1C (single isomer, unassigned) [Example 39] is ___
## Output +++ (Emax>200 and ≤300)

## Input Fill in: Emax of Cc1nc2cc(N3CCO[C@@H](c4cnn(C)c4)C3)nc(-c3ccc(F)cc3F)c2c(=O)n1C [Example 8] is ___
## Output ++++ (Emax>300)

## Input Fill in: Emax of Cc1nc2cc(N3CC[C@H](N(C)C)C3)nc(-c3ccc(Cl)cc3F)c2c(=O)n1C [Example 255] is ___
## Output +++ (Emax>200 and ≤300)

## Input Fill in: Emax of CCn1cc([C@H]2CN(c3cc4nc(C)n(C)c(=O)c4c(-c4ccc(Cl)cc4F)n3)CCO2)cn1 (single isomer, unassigned) [Example 23] is ___
## Output ++++ (Emax>300)

## Input Fill in: Emax of Cc1nc2cc([C@@H]3CCO[C@H](c4cnn(C)c4)C3)nc(-c3ccc(Cl)cc3F)c2c(=O)n1C (single isomer, unassigned) [Example 163] is ___
## Output +++ (Emax>200 and ≤300)

## Input Fill in: Emax of COc1cc([C@H]2C[C@@H](c3cc4nc(C)n(C)c(=O)c4c(-c4ccc(Cl)cc4F)n3)CCO2)ccn1 (single isomer, unassigned) [Example 172] is ___
## Output ++++ (Emax>300)

## Input Fill in: Emax of COc1ccc([C@@H]2CN(c3cc4nc(C)n(C)c(=O)c4c(-c4ccc(Cl)cc4F)n3)CCO2)cc1 (single isomer, unassigned) [Example 79] is ___
## Output +++ (Emax>200 and ≤300)

## Input Fill in: Emax of CCn1cc([C@@H]2CN(c3cc4nc(C)n(C)c(=O)c4c(-c4ccc(Cl)cc4F)n3)CCO2)cn1 (single isomer, unassigned) [Example 24] is ___
## Output ++++ (Emax>300)

---

assayedTarget: hTREM2 (Homo sapiens)
measurementNotes: Phospho-Syk AlphaScreen/AlphaLISA assay in TREM2 and DAP12 overexpressing HEK293 cells (Example A1)
Format: cell-based
Set-up: expressed in transfected cells
condition: HEK293 cells
metricName: Emax

Recorded Emax, per entry:
>>> print(df.to_string())
                                   compound                   result
0  Cc1nc2cc(N3CCO[C@@H](c4ccncc4)C3)nc(-c3ccc(Cl)cc3F)c2c(=O)n1C (single isomer, unassigned) [Example 49]          ++++ (Emax>300)
1  Cc1nc2cc(N3CCOC(CC(F)(F)F)C3)nc(-c3ccc(Cl)cc3F)c2c(=O)n1C (stereo not drawn) [Example 53]          ++++ (Emax>300)
2  CCCn1c(C)nc2cc(N3CCO[C@@H](C(F)(F)F)C3)nc(-c3ccc(Cl)cc3F)c2c1=O [Example 179]          ++++ (Emax>300)
3  Cc1nnc([C@H]2CN(c3cc4nc(C)n(C)c(=O)c4c(-c4ccc(Cl)cc4F)n3)CCO2)o1 (single isomer, unassigned) [Example 59]  +++ (Emax>200 and ≤300)
4  Cc1nc2cc(N3CCOC(C4CCC4)C3)nc(-c3ccc(Cl)cc3F)c2c(=O)n1C (stereo not drawn) [Example 33]          ++++ (Emax>300)

## Input Fill in: Emax of Cc1nc2cc(N3CCO[C@@H](c4ccnc(C(F)(F)F)c4)C3)nc(-c3ccc(Cl)cc3F)c2c(=O)n1C [Example 266] is ___
## Output +++ (Emax>200 and ≤300)

## Input Fill in: Emax of Cc1nc2cc(N3C[C@@H](c4cnn(C)c4)O[C@@H](C)C3)nc(-c3ccc(Cl)cc3F)c2c(=O)n1C (single isomer, unassigned) [Example 29] is ___
## Output +++ (Emax>200 and ≤300)

## Input Fill in: Emax of Cc1nccc(C2CN(c3cc4nc(C)n(C)c(=O)c4c(-c4ccc(Cl)cc4F)n3)CCO2)n1 (stereo not drawn) [Example 63] is ___
## Output ++++ (Emax>300)

---

assayedTarget: hTREM2 (Homo sapiens, UniProt Q9NZC2)
Sequence (Q9NZC2 19-230): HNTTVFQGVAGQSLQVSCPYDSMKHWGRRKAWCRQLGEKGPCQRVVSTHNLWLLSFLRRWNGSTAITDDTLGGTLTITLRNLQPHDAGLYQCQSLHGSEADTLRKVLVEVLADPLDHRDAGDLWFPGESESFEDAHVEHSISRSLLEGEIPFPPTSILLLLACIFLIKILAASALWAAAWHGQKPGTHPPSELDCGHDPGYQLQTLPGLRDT
Sequence (O43914 22-113 partner): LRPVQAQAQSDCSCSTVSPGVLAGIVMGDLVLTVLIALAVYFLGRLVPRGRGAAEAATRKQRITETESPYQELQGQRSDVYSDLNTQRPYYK
measurementNotes: Phospho-Syk AlphaScreen/AlphaLISA assay in TREM2 and DAP12 overexpressing HEK293 cells (Example A1)
Format: cell-based
Design: expressed in transfected cells
condition: HEK293 cells, read-out: hTREM2 EC50
metricName: EC50

>>> df
                                   molecule             result
0  Cc1nc2cc(N3CCO[C@@H](c4cnn(C(F)CO)c4)C3)nc(-c3ccc(Cl)cc3F)c2c(=O)n1C (stereo partly shown)       50 to 500 nM
1  Cc1nc2cc(N3CCc4ccncc4C3)nc(-c3ccc(Cl)cc3F)c2c(=O)n1C       50 to 500 nM
2  Cc1nc2cc(N3CC[C@H](C(F)F)C3)nc(-c3ccc(Cl)cc3F)c2c(=O)n1C  3000 to 100000 nM
3  Cc1nc2cc(N3C[C@H](C)O[C@@H](c4cnn(C)c4)C3)nc(-c3ccc(Cl)cc3F)c2c(=O)n1C (single isomer, unassigned)     500 to 3000 nM
4  Cc1nc2cc(N3CCCC(N(C)C)C3)nc(-c3ccc(Cl)cc3F)c2c(=O)n1C (stereo not shown)     500 to 3000 nM
5  Cc1nc2cc(N3CCO[C@@H](c4ccc(OCC(F)(F)F)nc4)C3)nc(-c3ccc(Cl)cc3F)c2c(=O)n1C  3000 to 100000 nM

Next up:
## Input Fill in: EC50 of Cc1nc2cc(N3CCO[C@H](c4cccnc4)C3)nc(-c3ccc(Cl)cc3F)c2c(=O)n1C [Example 210] is ___
## Output 50 to 500 nM
